experimental-system: human arginase I (ARG I) (Homo sapiens)
Sequence (P05089 1-322): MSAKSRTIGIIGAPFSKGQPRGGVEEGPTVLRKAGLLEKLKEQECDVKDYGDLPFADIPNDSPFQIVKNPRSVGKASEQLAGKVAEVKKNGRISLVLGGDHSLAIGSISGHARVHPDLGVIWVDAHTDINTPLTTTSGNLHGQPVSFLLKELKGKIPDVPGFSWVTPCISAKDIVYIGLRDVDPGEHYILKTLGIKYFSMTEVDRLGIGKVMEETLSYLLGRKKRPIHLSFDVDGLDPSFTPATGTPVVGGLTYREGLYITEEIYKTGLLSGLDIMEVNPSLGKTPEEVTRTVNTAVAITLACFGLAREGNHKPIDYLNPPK
protocol-description: Inhibition of arginase I, spectrophotometric urea assay at 530 nm
Assay type: biochemical
test-settings: Formula I compounds, Table 2; read-out: Potency (ARG I)
Structures can show the parent of a compound that is named as a salt.
measured-attribute: IC50

INSERT INTO assay_data (molecule, result) VALUES
  ('O=C(O)C(CCCCB(O)O)NCc1ccc(Cl)cc1 (centres unmarked) [compound 145, hydrochloride]', '1000 to 2000 nM'),
  ('CCN(CC)CCC(N)(CCCCB(O)O)C(=O)O (centres unmarked) [compound 37, dihydrochloride]', '251 to 1000 nM'),
  ('C[C@@H](O)CNCC(N)(CCCCB(O)O)C(=O)O (some centres unmarked) [compound 85, dihydrochloride]', '2000 to 5000 nM'),
  ('CC1(C(=O)O)CCN(CCC(N)(CCCCB(O)O)C(=O)O)CC1 (centres unmarked)', '1000 to 2000 nM'),
  ('NC(CCCCB(O)O)(CC[C@@H]1CCCN1)C(=O)O (some centres unmarked) [compound 143, dihydrochloride]', '0.1 to 250 nM');

Challenge: Hello, I am looking for reported IC50 with human arginase I (ARG I) (Homo sapiens) for COC[C@@H]1CCCN1CCC(N)(CCCCB(O)O)C(=O)O (some centres unmarked) [compound 33, dihydrochloride] . Could you help?
Response given: 251 to 1000 nM

Challenge: Next record, please: CN1CCCN(CCC(N)(CCCCB(O)O)C(=O)O)CC1 (centres unmarked) [compound 49, dihydrochloride]
Response given: 2000 to 5000 nM

Challenge: What do you have for COc1cc2c(cc1OC)CN(CCC(N)(CCCCB(O)O)C(=O)O)CC2 (centres unmarked) [compound 26, dihydrochloride] ?
Response given: 251 to 1000 nM

====

This listing pairs compounds with measured IC50.
experimental-system: human arginase I (ARG I) (Homo sapiens)
protocol-description: Inhibition of arginase I, spectrophotometric urea assay at 530 nm
Format: biochemical
test-settings: Formula II compounds, Table 2-A; read-out: Potency (ARG I)
Where a name gives a salt, the structure may show the parent alone.

INSERT INTO assay_data (compound, result) VALUES
  ('NC(CCCCB(O)O)(C(=O)O)C1CCN(Cc2cccc(Cn3cccn3)c2)CC1 (centres unmarked) [Example 65-A, dihydrochloride]', '0.1 to 250 nM'),
  ('Cc1cc2c(F)ccc(C)c2nc1N1CCC(C(N)(CCCCB(O)O)C(=O)O)CC1 (centres unmarked) [5-A, dihydrochloride]', '1000 to 2000 nM'),
  ('NC(CCCCB(O)O)(C(=O)O)C1CCN(c2ncc(Cl)cc2Cl)CC1 (centres unmarked)', '2000 to 5000 nM'),
  ('NC(CCCCB(O)O)(C(=O)O)C1CCN(CCCc2ccc(Cl)cc2Cl)CC1 (centres unmarked) [Example 66-A, dihydrochloride]', '0.1 to 250 nM'),
  ('NC(CCCCB(O)O)(C(=O)O)[C@H]1C[C@@H](N)C1 (some centres unmarked) [Example 81-A, dihydrochloride]', '0.1 to 250 nM');

Challenge: Sample CC(C)CCN1CCC(C(N)(CCCCB(O)O)C(=O)O)CC1 (centres unmarked) [Example 92-A, dihydrochloride] — what was its IC50?
Response given: 0.1 to 250 nM

Challenge: Would you kindly repeat that for NC(CCCCB(O)O)(C(=O)O)C1CCN(Cc2ccccc2C(F)(F)F)CC1 (centres unmarked) [Example 53-A, dihydrochloride] ?
Response given: 251 to 1000 nM

Challenge: Likewise for NC(CCCCB(O)O)(C(=O)O)C1CCN(CCc2ccc(Cl)cc2Cl)CC1 (centres unmarked) ?
Response given: 0.1 to 250 nM

====

experimental-system: UniProtKB P78540
Sequence (P78540 23-354): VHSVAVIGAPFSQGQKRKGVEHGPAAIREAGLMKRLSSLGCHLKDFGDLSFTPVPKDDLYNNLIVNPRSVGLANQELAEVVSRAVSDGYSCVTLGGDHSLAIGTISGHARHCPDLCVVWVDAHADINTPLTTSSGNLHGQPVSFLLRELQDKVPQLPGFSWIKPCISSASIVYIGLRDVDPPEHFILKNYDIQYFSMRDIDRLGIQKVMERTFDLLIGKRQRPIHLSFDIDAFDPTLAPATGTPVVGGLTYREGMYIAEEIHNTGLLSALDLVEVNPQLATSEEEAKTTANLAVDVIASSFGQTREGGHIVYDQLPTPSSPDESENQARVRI
protocol-description: Inhibition of arginase II, spectrophotometric urea assay at 530 nm
Type: biochemical
pIC50: −log10 of the molar value. Counter-ions that a name gives are not always drawn.
measured-attribute: pIC50

Challenge: Please report the recorded pIC50 for CC(=O)C1(c2ccccc2)CCN(CCC(N)(CCCCB(O)O)C(=O)O)CC1 (stereo not shown) [compound 45, dihydrochloride] .
Response given: 5.30 to 5.70

====

experimental-system: human arginase I (ARG I) (Homo sapiens, UniProt P05089)
Sequence (P05089 1-322): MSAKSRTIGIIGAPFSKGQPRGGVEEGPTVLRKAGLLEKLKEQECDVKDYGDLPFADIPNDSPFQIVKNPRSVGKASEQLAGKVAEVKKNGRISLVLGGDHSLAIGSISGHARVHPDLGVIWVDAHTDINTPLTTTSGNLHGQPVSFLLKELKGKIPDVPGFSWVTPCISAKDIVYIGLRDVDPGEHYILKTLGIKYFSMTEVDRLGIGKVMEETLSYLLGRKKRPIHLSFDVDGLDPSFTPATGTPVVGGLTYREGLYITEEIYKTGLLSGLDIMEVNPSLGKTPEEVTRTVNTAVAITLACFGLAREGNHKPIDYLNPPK
protocol-description: Inhibition of arginase I, spectrophotometric urea assay at 530 nm
Assay type: biochemical
test-settings: Formula II compounds, Table 2-A; read-out: Potency (ARG I)
pIC50: −log10 of the molar value. Counter-ions that a name gives are not always drawn.
Recorded pIC50, one value per entry.

Worked cases, pIC50 given:
INSERT INTO assay_data (molecule, measured_attribute, result) VALUES
  ('NC(CCCCB(O)O)(C(=O)O)C1CCN(Cc2ccc(Oc3ccc(Cl)c(Cl)c3)cc2)CC1 (stereo not drawn) [Example 64-A, dihydrochloride]', 'pIC50', '6.60 to 10.00'),
  ('N[C@H]1CC[C@@H]([C@@](N)(CCCCB(O)O)C(=O)O)C1 [17-A, dihydrochloride]', 'pIC50', '6.60 to 10.00'),
  ('NC(CCCCB(O)O)(C(=O)O)[C@@H]1CCN(Cc2ccccc2)C1 (stereo partly drawn) [Example 67-A, dihydrochloride]', 'pIC50', '6.00 to 6.60'),
  ('NC(CCCCB(O)O)(C(=O)O)C1CCN(C(=O)Cc2ccc(F)cc2)CC1 (stereo not drawn) [28-A, hydrochloride]', 'pIC50', '5.30 to 5.70'),
  ('Cc1cc(CN2CCC(C(N)(CCCCB(O)O)C(=O)O)CC2)n(C)n1 (stereo not drawn) [Example 62-A, dihydrochloride]', 'pIC50', '6.00 to 6.60'),
  ('NC(CCCCB(O)O)(C(=O)O)[C@H]1CCCN(Cc2ccc(Cl)c(Cl)c2)C1 (stereo partly drawn) [Example 69-A, dihydrochloride]', 'pIC50', '6.00 to 6.60'),
  ('NC(CCCCB(O)O)(C(=O)O)C1CCN(c2ccc(Cl)cn2)CC1 (stereo not drawn) [Example 85-A, hydrochloride]', 'pIC50', '5.70 to 6.00'),
  ('NC(CCCCB(O)O)(C(=O)O)C1CCN(Cc2ccccc2-c2cccnc2)CC1 (stereo not drawn) [Example 57-A, dihydrochloride]', 'pIC50', '6.60 to 10.00'),
  ('COc1cc(F)c(CN2CCC(C(N)(CCCCB(O)O)C(=O)O)CC2)cc1OC (stereo not drawn) [Example 96-A, dihydrochloride]', 'pIC50', '6.60 to 10.00'),
  ('NC(CCCCB(O)O)(C(=O)O)[C@@H]1CCN(Cc2ccc(C(F)(F)F)cc2)C1 (mixture of isomers) [38-A, dihydrochloride]', 'pIC50', '6.00 to 6.60');

Challenge: Item NC1CCC(C(N)(CCCCB(O)O)C(=O)O)CC1 (stereo not drawn) [20-A, dihydrochloride] with human arginase I (ARG I) (Homo sapiens, UniProt P05089) - pIC50?
Response given: 6.00 to 6.60

Challenge: Moving on to NC(CCCCB(O)O)(C(=O)O)C1CCN(Cc2ccc(F)c(F)c2)CC1 (stereo not drawn)
Response given: 6.60 to 10.00

Challenge: Please answer likewise for NC(CCCCB(O)O)(C(=O)O)C1CCN(Cc2cc3c(cc2Cl)OCO3)CC1 (stereo not drawn) [Example 91-A, dihydrochloride]
Response given: 6.60 to 10.00

Challenge: Same thing, different molecule: NC(CCCCB(O)O)(C(=O)O)C1CCN(CCCc2cc(F)cc(Cl)c2)CC1 (stereo not drawn)
Response given: 6.60 to 10.00

Challenge: Here is the next molecule: Cc1ccc(CN2CC[C@@H](C(N)(CCCCB(O)O)C(=O)O)C2)cc1 (stereo partly drawn) [Example 39-A, dihydrochloride]
Response given: 6.00 to 6.60

Challenge: NC(CCCCB(O)O)(C(=O)O)C1CCN(Cc2ccc3ccccc3c2)CC1 (stereo not drawn) [Example 99-A, dihydrochloride] , same question.
Response given: 6.60 to 10.00

Challenge: Also NC(CCCCB(O)O)(C(=O)O)C1CNCCO1 (stereo not drawn) [19-A, dihydrochloride] ?
Response given: 5.30 to 5.70

Challenge: Next: NC(CCCCB(O)O)(C(=O)O)C1CCCN(Cc2ccc(Cl)c(Cl)c2)CC1 (stereo not drawn) [Example 73-A, dihydrochloride]
Response given: 6.60 to 10.00

Challenge: Likewise for NC(CCCCB(O)O)(C(=O)O)C1CCN(Cc2cccc(OC(F)(F)F)c2)CC1 (stereo not drawn) [Example 103-A, dihydrochloride] ?
Response given: 6.60 to 10.00

Challenge: Same question for NC(CCCCB(O)O)(C(=O)O)C1CCN(Cc2ccc(Cl)cc2Cl)CC1 (stereo not drawn) [Example 97-A, dihydrochloride] please.
Response given: 6.00 to 6.60

Challenge: What do you have for NC(CCCCB(O)O)(C(=O)O)C1CCN(Cc2cccc(C(=O)O)c2)CC1 (stereo not drawn) [Example 105-A, dihydrochloride] ?
Response given: 6.00 to 6.60

Challenge: And the next one, NC(CCCCB(O)O)(C(=O)O)C1CCN(CCCc2ccc(C(F)(F)F)cc2)CC1 (stereo not drawn) [Example 63-A, dihydrochloride] ?
Response given: 6.60 to 10.00

Challenge: Same question, NC(CCCCB(O)O)(C(=O)O)C1CCN(C2CCCC2)CC1 (stereo not drawn) [24-A, dihydrochloride] this time
Response given: 6.00 to 6.60

Challenge: Please do the same for COc1cccc(-c2ccccc2CN2CCC(C(N)(CCCCB(O)O)C(=O)O)CC2)c1 (stereo not drawn) [Example 58-A, dihydrochloride] as well.
Response given: 6.60 to 10.00

Challenge: Try NC(CCCCB(O)O)(C(=O)O)[C@H]1C[C@@H](NCc2ccc(-c3ccccc3)cc2)C1 (stereo partly drawn) [Example 77-A, dihydrochloride] next.
Response given: 6.60 to 10.00

Challenge: Now give it for NC(CCCCB(O)O)(C(=O)O)C1CCN(c2nc3ccc(Cl)cc3s2)CC1 (stereo not drawn) [11-A, dihydrochloride] too.
Response given: 6.00 to 6.60

Challenge: Cool, now N[C@@H]1CC[C@H]([C@](N)(CCCCB(O)O)C(=O)O)C1 [15-A, dihydrochloride]
Response given: 6.60 to 10.00

Challenge: Entry NC(CCCCB(O)O)(C(=O)O)C1CCN(Cc2ccccc2N2CCOCC2)CC1 (stereo not drawn) [Example 54-A, dihydrochloride] please
Response given: 6.60 to 10.00

Challenge: Then Cc1ccc(NC(=S)N2CCC(C(N)(CCCCB(O)O)C(=O)O)CC2)cc1Cl (stereo not drawn) ?
Response given: 6.00 to 6.60

Challenge: Check NC(CCCCB(O)O)(C(=O)O)[C@H]1C[C@@H](NCc2ccc(OC(F)(F)F)cc2)C1 (stereo partly drawn) [Example 76-A, dihydrochloride] too.
Response given: 6.60 to 10.00

Just for reference, patent US9994594B2 is where these values come from.
